Biological target: Sodium-dependent serotonin transporter (Rattus norvegicus, UniProt P31652)
Sequence (P31652 whole entry): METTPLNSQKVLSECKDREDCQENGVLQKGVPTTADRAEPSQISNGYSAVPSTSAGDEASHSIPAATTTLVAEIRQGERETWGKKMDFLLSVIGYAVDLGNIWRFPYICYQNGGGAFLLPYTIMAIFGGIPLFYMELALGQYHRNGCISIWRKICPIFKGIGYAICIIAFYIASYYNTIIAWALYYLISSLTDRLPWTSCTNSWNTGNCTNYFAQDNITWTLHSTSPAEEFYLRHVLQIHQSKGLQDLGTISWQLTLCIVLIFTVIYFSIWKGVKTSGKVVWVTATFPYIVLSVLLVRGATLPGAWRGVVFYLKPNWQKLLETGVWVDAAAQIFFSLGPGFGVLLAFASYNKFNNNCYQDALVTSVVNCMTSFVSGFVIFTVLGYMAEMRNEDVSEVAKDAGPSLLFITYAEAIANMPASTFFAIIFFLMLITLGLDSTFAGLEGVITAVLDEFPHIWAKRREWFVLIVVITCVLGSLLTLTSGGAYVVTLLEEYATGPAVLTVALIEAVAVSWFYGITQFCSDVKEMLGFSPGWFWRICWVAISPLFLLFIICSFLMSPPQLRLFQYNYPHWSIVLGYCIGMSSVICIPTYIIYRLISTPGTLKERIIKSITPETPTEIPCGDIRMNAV
Test: Inhibition of SERT-mediated [3H]5-HT uptake in rat cerebral cortex
Labelling field: enter criterion met if recorded Ki is less than 200 nM. Enter criterion not met if it equals or exceeds that cut-off.

Completed entries (count: 4):
Oc1ccc(CN[C@H]2CC[C@@H](C(c3ccccc3)c3ccccc3)OC2)cc1    criterion met
c1ccc(C(c2ccccc2)[C@H]2CC[C@@H](NCc3ccc4[nH]ccc4c3)CO2)cc1    criterion met
c1ccc(C(c2ccccc2)[C@@H]2CC[C@H](NCc3ccc4[nH]ccc4c3)CO2)cc1    criterion met
O[C@@H]1C[C@@H](C(c2ccccc2)c2ccccc2)OC[C@H]1NCc1ccccc1    criterion not met

-- ask # check: Ki < 200 nM for `Oc1ccc(CN[C@@H]2CC[C@H](C(c3ccccc3)c3ccccc3)OC2)cc1`
-- reply criterion met
